# System: CD2F1 mice, L1210 leukemia ip, survival T/C
# assay.info: NCI In Vivo Anticancer Drug Screen. Data for tumor model L1210 Leukemia (intraperitoneal) in CD2F1 (CDF1) mice
# assay.setup: endpoint: mean survival time; dose: 100.0 mg/kg/injection; schedule: Q01DX001 (ip); vehicle: saline with Tween-80; higher = longer survival
Inconclusive results and toxic doses are left out.
recorded.endpoint: T/C

Name the value of T/C reported for COc1cc(-c2cc(OC)c(O)c(OC)c2)cc(OC)c1O when tested on CD2F1 mice, L1210 leukemia ip, survival T/C. 96 % of control

Name the value of T/C reported for CSc1ncc(C(=O)O)c(SC(C)C)n1 when tested on CD2F1 mice, L1210 leukemia ip, survival T/C. 102 % of control

Name the value of T/C reported for O=c1[nH]c(=O)n(CCCCOc2ccccc2)cc1-c1ccccc1 when tested on CD2F1 mice, L1210 leukemia ip, survival T/C. 98 % of control

Name the value of T/C reported for O=C(CCl)NC12Nc3ccccc3C1(Cc1ccccc1)CN(C1CCCCC1)C2=O (centres undefined) when tested on CD2F1 mice, L1210 leukemia ip, survival T/C. 100 % of control

Name the value of T/C reported for O=c1[nH]cnc2snc(Cl)c12 when tested on CD2F1 mice, L1210 leukemia ip, survival T/C. 101 % of control

Name the value of T/C reported for CCOC(=O)C(=Cc1ccc(O)c(OC)c1)C(=O)OCC when tested on CD2F1 mice, L1210 leukemia ip, survival T/C. 104 % of control

Name the value of T/C reported for CC(=O)Nc1ccc(Cc2[nH]c(=O)[nH]c(=O)c2Br)cc1[N+](=O)[O-] when tested on CD2F1 mice, L1210 leukemia ip, survival T/C. 95 % of control

Name the value of T/C reported for Clc1[nH]nc2ccccc12 when tested on CD2F1 mice, L1210 leukemia ip, survival T/C. 93 % of control

Name the value of T/C reported for CC(=O)N1NC2C(=O)N(C3CCCCC3)CC2C1c1ccc(N(C)C)cc1 (centres undefined) when tested on CD2F1 mice, L1210 leukemia ip, survival T/C. 100 % of control

Name the value of T/C reported for Cc1ccc(NC(=O)NCCCCCCNC(=O)Nc2ccc(C)c(Cl)c2)cc1Cl when tested on CD2F1 mice, L1210 leukemia ip, survival T/C. 89 % of control

Name the value of T/C reported for Nc1ncnc2nc(SCc3cccc([N+](=O)[O-])c3)[nH]c12 when tested on CD2F1 mice, L1210 leukemia ip, survival T/C. 96 % of control

Name the value of T/C reported for O=C(Nc1cc(Cl)c(NC(=O)c2ccccc2)c(Cl)c1)c1ccccc1 when tested on CD2F1 mice, L1210 leukemia ip, survival T/C. 96 % of control

Name the value of T/C reported for Cc1csc2nccc(Cl)c12 when tested on CD2F1 mice, L1210 leukemia ip, survival T/C. 100 % of control

Name the value of T/C reported for O=[N+]([O-])/C=C\c1cc2c3c(c1)CCCN3CCC2 when tested on CD2F1 mice, L1210 leukemia ip, survival T/C. 103 % of control

Name the value of T/C reported for Cc1ccc(S(=O)(=O)N(O)S(=O)(=O)c2ccc(C)cc2)cc1 when tested on CD2F1 mice, L1210 leukemia ip, survival T/C. 101 % of control

Name the value of T/C reported for COC(=O)C(C)C1CCC2C3CCC4CC(OC(C)=O)CCC4(C)C3CC(OC(C)=O)C12C (centres undefined) when tested on CD2F1 mice, L1210 leukemia ip, survival T/C. 95 % of control

Name the value of T/C reported for COC(=O)C(Br)c1ccccc1 (centres undefined) when tested on CD2F1 mice, L1210 leukemia ip, survival T/C. 108 % of control

Name the value of T/C reported for O=C1NC(=O)C(CCCCO)N1 (centres undefined) when tested on CD2F1 mice, L1210 leukemia ip, survival T/C. 101 % of control

Name the value of T/C reported for O=c1[nH]nc(-c2cccc3ccccc23)o1 when tested on CD2F1 mice, L1210 leukemia ip, survival T/C. 96 % of control

Name the value of T/C reported for OCc1c(Cl)cccc1Cl when tested on CD2F1 mice, L1210 leukemia ip, survival T/C. 104 % of control

Name the value of T/C reported for O=C1c2ccccc2C(=O)N1CCS(=O)(=O)Cl when tested on CD2F1 mice, L1210 leukemia ip, survival T/C. 97 % of control

Name the value of T/C reported for O=C1C(c2ccccc2)=C(c2ccccc2)c2cc(Br)c(Br)cc21 when tested on CD2F1 mice, L1210 leukemia ip, survival T/C. 93 % of control

Name the value of T/C reported for CC1=NN(c2ccc([N+](=O)[O-])cc2)C(=O)C1[N+](=O)[O-] (centres undefined) (tested in a mixture with another compound) when tested on CD2F1 mice, L1210 leukemia ip, survival T/C. 91 % of control

Name the value of T/C reported for C[C@]12CC[C@H](OC(=O)Cc3ccc(N(CCCl)CCCl)cc3)CC1=CC[C@@H]1[C@@H]2CC[C@]2(C)C(=O)CC[C@@H]12 when tested on CD2F1 mice, L1210 leukemia ip, survival T/C. 92 % of control

Name the value of T/C reported for CCCCCCCCCCCCOC(=O)c1ccc([N+](=O)[O-])cc1 when tested on CD2F1 mice, L1210 leukemia ip, survival T/C. 94 % of control

Name the value of T/C reported for CCCCCCCCCCCCCCCCCCSc1ccc(Br)cc1 when tested on CD2F1 mice, L1210 leukemia ip, survival T/C. 92 % of control

Name the value of T/C reported for CN(C)c1ccc(NS(=O)(=O)c2ccccc2)cc1 when tested on CD2F1 mice, L1210 leukemia ip, survival T/C. 103 % of control

Name the value of T/C reported for O=C1N(CCc2ccccc2)CC2C(c3ccccc3)NNC12O (centres undefined) when tested on CD2F1 mice, L1210 leukemia ip, survival T/C. 96 % of control

Name the value of T/C reported for CCCCCCP(C)(=O)CCCCCC when tested on CD2F1 mice, L1210 leukemia ip, survival T/C. 100 % of control

Name the value of T/C reported for CC1(Br)C(C)(Br)C(C)(Br)C(C)(Br)C(C)(Br)C1(C)Br (centres undefined) when tested on CD2F1 mice, L1210 leukemia ip, survival T/C. 96 % of control

Name the value of T/C reported for CON=C(/C=C\c1ccccc1)/C=C/c1ccccc1 when tested on CD2F1 mice, L1210 leukemia ip, survival T/C. 102 % of control

Name the value of T/C reported for Fc1c(F)c(F)c(Nc2c(F)c(F)c3c(F)c(F)c(F)c(F)c3c2F)c(F)c1F when tested on CD2F1 mice, L1210 leukemia ip, survival T/C. 98 % of control

Name the value of T/C reported for Cc1ccc(C2=C(c3ccc(C)cc3)CS(=O)(=O)C2)cc1 when tested on CD2F1 mice, L1210 leukemia ip, survival T/C. 92 % of control

Name the value of T/C reported for CCOc1ccc(NC(=O)OCC(C)C)cc1 when tested on CD2F1 mice, L1210 leukemia ip, survival T/C. 97 % of control

Name the value of T/C reported for Nc1cc(=S)c2ncn(C3OC(CO)C(O)C3O)c2[nH]1 (centres undefined) when tested on CD2F1 mice, L1210 leukemia ip, survival T/C. 100 % of control

Name the value of T/C reported for CCOC(=O)COc1ccc(OC)cc1C=O when tested on CD2F1 mice, L1210 leukemia ip, survival T/C. 93 % of control

Name the value of T/C reported for CC(=O)OCC(=O)C1CCC2C3CCC4CC(OC(C)=O)CCC4(C)C3CCC12C (centres undefined) when tested on CD2F1 mice, L1210 leukemia ip, survival T/C. 91 % of control

Name the value of T/C reported for CP(=O)(c1ccccc1)c1ccccc1 when tested on CD2F1 mice, L1210 leukemia ip, survival T/C. 100 % of control

Name the value of T/C reported for CC(C)OC(=O)CCl when tested on CD2F1 mice, L1210 leukemia ip, survival T/C. 100 % of control

Name the value of T/C reported for CC1=CC(O)(c2ccccc2)C(C)=CC1=O (centres undefined) when tested on CD2F1 mice, L1210 leukemia ip, survival T/C. 97 % of control

Name the value of T/C reported for OCC(O)C(O)C(O)C(SCc1ccccc1)SCc1ccccc1 (centres undefined) when tested on CD2F1 mice, L1210 leukemia ip, survival T/C. 97 % of control

Name the value of T/C reported for CCCCCCCCCCCCCC(CCCCCCCCCC)CCCCCCCCCC when tested on CD2F1 mice, L1210 leukemia ip, survival T/C. 98 % of control

Name the value of T/C reported for CNC(=O)Nc1cc(OC)ccc1OC when tested on CD2F1 mice, L1210 leukemia ip, survival T/C. 106 % of control

Name the value of T/C reported for CCSC(SCC)C(O)C(O)C1COC(C)(C)O1 (centres undefined) when tested on CD2F1 mice, L1210 leukemia ip, survival T/C. 93 % of control

Name the value of T/C reported for Nc1c(Cl)cccc1Cl (tested in a mixture with another compound) when tested on CD2F1 mice, L1210 leukemia ip, survival T/C. 89 % of control

Name the value of T/C reported for CC(C)(CO)NC(=O)CC1CCCCC1 when tested on CD2F1 mice, L1210 leukemia ip, survival T/C. 103 % of control

Name the value of T/C reported for C1=C(c2ccccc2)N(c2ccccc2)N=C(c2ccccc2)C1 when tested on CD2F1 mice, L1210 leukemia ip, survival T/C. 94 % of control

Name the value of T/C reported for O=c1[nH]c(NCCCCc2ccccc2)c(Br)c(=O)[nH]1 when tested on CD2F1 mice, L1210 leukemia ip, survival T/C. 91 % of control

Name the value of T/C reported for CCOc1ccccc1NC(=O)C(Br)C(Br)C(=O)O (centres undefined) when tested on CD2F1 mice, L1210 leukemia ip, survival T/C. 110 % of control

Values were extracted from PubChem BioAssay AID256.
